Species on record: Rattus norvegicus
assayProcedure: Open TG-GATES - Regimen: Daily Repeat
Type: toxicity, organism-based, Sprague-Dawley
Design: regimen Daily Repeat, gender Male, age 6 weeks
testSettings: in vivo, po, 1000 mg/kg, 72 h, tissue Blood, route gavage, dose level High, time 3 day
measureName: Mono (%)
Please respond with the number in % and leave the unit unwritten.

IN: What value of Mono has been reported for the following compound? CCN1CCCC1CNC(=O)c1cc(S(N)(=O)=O)ccc1OC (centres undefined) [SULPIRIDE]
OUT: 2.8

IN: What value of Mono has been reported for the following compound? `O=C(O)c1cccnc1`
OUT: 3.8

IN: What value of Mono has been reported for the following compound? `CC(C)(S)[C@@H](N)C(=O)O`
OUT: 2.6

IN: What value of Mono has been reported for the following compound? `O=C(N[C@H](CO)[C@H](O)c1ccc([N+](=O)[O-])cc1)C(Cl)Cl`
OUT: 3.2
